Recorded MIC by entry
Test system: Acinetobacter baumannii
Test: Antimicrobial activity against Acinetobacter baumannii KI by Etest method
Assay type: functional

Compound: C[C@@H](O)[C@H]1C(=O)N2C(C(=O)O)=C(S[C@@H]3CN[C@H](C(=O)N(C)C)C3)[C@H](C)[C@H]12
MIC: 2 mg/L

Compound: CC1(C)S[C@@H]2[C@H](NC(=O)[C@H](C(=O)O)c3ccsc3)C(=O)N2[C@H]1C(=O)O
MIC: > 256 mg/L

Compound: C[C@H]1[C@H](NC(=O)/C(=N\OC(C)(C)C(=O)O)c2csc(N)n2)C(=O)N1S(=O)(=O)O
MIC: 256 mg/L

Compound: CCN1CCN(C(=O)N[C@@H](C(=O)N[C@@H]2C(=O)N3[C@@H]2SC(C)(C)[C@@H]3C(=O)O)c2ccccc2)C(=O)C1=O
MIC: > 256 mg/L

Compound: CC1(C)S[C@@H]2[C@H](NC(=O)[C@H](N)c3ccc(O)cc3)C(=O)N2[C@H]1C(=O)O
MIC: > 256 mg/L

Compound: CO/N=C(\C(=O)N[C@@H]1C(=O)N2C(C(=O)[O-])=C(C[N+]3(C)CCCC3)CS[C@H]12)c1csc(N)n1
MIC: 256 mg/L

Compound: C[C@@H](O)[C@H]1C(=O)N2C(C(=O)O)=C(SCCNC=N)C[C@H]12 [IMIPENEM ANHYDROUS]
MIC: 2 mg/L

Compound: CO/N=C(\C(=O)N[C@@H]1C(=O)N2C(C(=O)[O-])=C(C[n+]3cccc4c3CCC4)CS[C@H]12)c1csc(N)n1
MIC: > 256 mg/L

Compound: CO/N=C(\C(=O)N[C@@H]1C(=O)N2C(C(=O)O)=C(COC(C)=O)CS[C@H]12)c1csc(N)n1
MIC: > 256 mg/L

Compound: CO/N=C(\C(=O)N[C@@H]1C(=O)N2C(C(=O)O)=C(COC(N)=O)CS[C@H]12)c1ccco1
MIC: > 256 mg/L

Compound: CC(C)(O/N=C(\C(=O)N[C@@H]1C(=O)N2C(C(=O)[O-])=C(C[n+]3ccccc3)CS[C@H]12)c1csc(N)n1)C(=O)O
MIC: > 256 mg/L
